Provide the recorded abundance fitness for the entries that follow.
B1: Double-stranded RNA-binding protein Staufen homolog 1, residues 183 to 249; numbered along this chain, O95793 (parent)
chain: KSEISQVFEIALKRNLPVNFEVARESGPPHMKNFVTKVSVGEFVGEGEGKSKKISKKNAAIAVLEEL

Variants of: B1
Assay: abundance fitness (aPCA) (normalised: wild type 0, dead -1); higher = more abundant; growth selection in yeast, the domain comes from the species named
Details: Homo sapiens
The response must contain the number and no unit.

Input line: Please give the documented abundance fitness of KSEISQVFEIALKRNLPVNFEVARESGPPHMKNFVTKVSVGEFVGEGEGKSKKISKKNAAIAVLETL [E66T]
Output line: -0.042

Input line: Please give the documented abundance fitness of KSEISQVFEIALKRNLPVNFEVARESGPPHMKNFVRKVSVGEFVGEGEGKSKKISKKNAAIAVLEEL [T36R]
Output line: -0.768

Input line: Please give the documented abundance fitness of KSEISQVFEIAFKRNLPVNFEVARESGPPHMKNFVTKVSVGEFVGEGEGKSKKISKKNAAIAVLEEL [L12F]
Output line: -0.075

Input line: Please give the documented abundance fitness of KSEISMVFEIALKRNLPVNFEVARESGPPHMKNFVTKVSVGEFVGEGEGKSKKISKKNAAIAVLEEL [Q6M]
Output line: -0.169

Input line: Please give the documented abundance fitness of KSEISQVFEIALKRNLPVNFEVARESGPPHMKNFVQKVSVGEFVGEGEGKSKKISKKNAAIAVLEEL [T36Q]
Output line: -0.548

Input line: Please give the documented abundance fitness of KSEISQVFEIALKRNLPVNFEVARESGPPHMKNFVTKVSVGEFVGEGEGKSKKISKKNAAIAVDEEL [L64D]
Output line: -0.492

Input line: Please give the documented abundance fitness of KSEISQVFEIALKRNLPVNFEVARESGPPHMKNFVTKVSVGEFDGEGEGKSKKISKKNAAIAVLEEL [V44D]
Output line: -0.238

Input line: Please give the documented abundance fitness of KSEISQVFEIALKRNLPVNFEVARESGPPHMKNFVTKVSVGEFVIEGEGKSKKISKKNAAIAVLEEL [G45I]
Output line: -0.487

Input line: Please give the documented abundance fitness of KSEISQVFGIALKRNLPVNFEVARESGPPHMKNFVTKVSVGEFVGEGEGKSKKISKKNAAIAVLEEL [E9G]
Output line: -0.433

Input line: Please give the documented abundance fitness of KSEISQVFEIALKRNIPVNFEVARESGPPHMKNFVTKVSVGEFVGEGEGKSKKISKKNAAIAVLEEL [L16I]
Output line: -0.196

Input line: Please give the documented abundance fitness of KSEISQVFEIALKRNLPVNFEAARESGPPHMKNFVTKVSVGEFVGEGEGKSKKISKKNAAIAVLEEL [V22A]
Output line: -0.022

Input line: Please give the documented abundance fitness of KSEISQVFEIALKRNLPVNFRVARESGPPHMKNFVTKVSVGEFVGEGEGKSKKISKKNAAIAVLEEL [E21R]
Output line: -0.084

Input line: Please give the documented abundance fitness of KSEISQVFEIALKRNLPVNFEVARESGPPHMKNFVTKVSVGEFVGEGEQKSKKISKKNAAIAVLEEL [G49Q]
Output line: -0.741

Input line: Please give the documented abundance fitness of KSEISQVFEIALKRNLPQNFEVARESGPPHMKNFVTKVSVGEFVGEGEGKSKKISKKNAAIAVLEEL [V18Q]
Output line: -0.647

Input line: Please give the documented abundance fitness of KSEISQVFEIALKRNLPVNFEVARESGPPHMKNFVTKVSVGEFVGPGEGKSKKISKKNAAIAVLEEL [E46P]
Output line: -0.939

Input line: Please give the documented abundance fitness of KSEISQVFEIALKRNLPVNFEVARESGPPHMKNFVTKVSVREFVGEGEGKSKKISKKNAAIAVLEEL [G41R]
Output line: -0.941

Input line: Please give the documented abundance fitness of KSEISQVFEIALKRNLPVNFEVARESKPPHMKNFVTKVSVGEFVGEGEGKSKKISKKNAAIAVLEEL [G27K]
Output line: -0.207

Input line: Please give the documented abundance fitness of KSEISQVFEIALKRNLPVNFEVARESGPPHMKNFVTKVSVGEFVGEGEGKSKKISKKNAAIAVLWEL [E65W]
Output line: -0.388

Input line: Please give the documented abundance fitness of KSEISQVFEIALKRNLPVNFEVARESGPPNMKNFVTKVSVGEFVGEGEGKSKKISKKNAAIAVLEEL [H30N]
Output line: 0.078

Input line: Please give the documented abundance fitness of KSEISQVFEIALKRNLPVNFEVARESGPPHMKNFWTKVSVGEFVGEGEGKSKKISKKNAAIAVLEEL [V35W]
Output line: -0.186

Input line: Please give the documented abundance fitness of KSEISQVFEIALKRNLPVNFEVARESGPPHMKNFVTKVSWGEFVGEGEGKSKKISKKNAAIAVLEEL [V40W]
Output line: -1.3

Input line: Please give the documented abundance fitness of KSEISQVFEIALKRNLPVNFEVARESGPPHMKNFVTKVSVGEFVGEGEGKSKKISKKNAAIAVGEEL [L64G]
Output line: -0.44

Input line: Please give the documented abundance fitness of KSEISQVFEIALKRNLPVNFEVARESGPPHMKNFVTKVSVGEFVGEGEGKSKKISKKNAAINVLEEL [A62N]
Output line: 0.035

Input line: Please give the documented abundance fitness of KSEISQVFEIALKRNLPVNFEVARESGPPHHKNFVTKVSVGEFVGEGEGKSKKISKKNAAIAVLEEL [M31H]
Output line: 0.079

Input line: Please give the documented abundance fitness of KSEISQVFEIALKRNLPVNFESARESGPPHMKNFVTKVSVGEFVGEGEGKSKKISKKNAAIAVLEEL [V22S]
Output line: -0.059

Input line: Please give the documented abundance fitness of KSEISQVFEIALKRNLPVNFEVARESGPPHMKNFVTKVSVGEFVGEGEGKSKKISKKNAAIAVLEYL [E66Y]
Output line: 0.063

Input line: Please give the documented abundance fitness of KSEISQVFEIALKRNLPVNFEVARESGPPHMKNFVTKVSVGEFVGEGEGKYKKISKKNAAIAVLEEL [S51Y]
Output line: -0.657

Input line: Please give the documented abundance fitness of KSEISQVFEIALKRNLPVNFEVARESGPPHMKNFVTKVSVQEFVGEGEGKSKKISKKNAAIAVLEEL [G41Q]
Output line: -0.979

Input line: Please give the documented abundance fitness of KSEISQVFEIALKRNLPVNFEVARESGPPHMKNFVTKVSVGEFVGEGEGKFKKISKKNAAIAVLEEL [S51F]
Output line: -0.929

Input line: Please give the documented abundance fitness of KSEISQVFEIALKRNLPVNFEPARESGPPHMKNFVTKVSVGEFVGEGEGKSKKISKKNAAIAVLEEL [V22P]
Output line: 0.056

Input line: Please give the documented abundance fitness of KSEISQVFEIALKRNLPVNFEVARESGPPHMKNFVTKVSVGEFVWEGEGKSKKISKKNAAIAVLEEL [G45W]
Output line: -0.582

Input line: Please give the documented abundance fitness of KSEISIVFEIALKRNLPVNFEVARESGPPHMKNFVTKVSVGEFVGEGEGKSKKISKKNAAIAVLEEL [Q6I]
Output line: -0.393

Input line: Please give the documented abundance fitness of KSEISQVFEIALKRNPPVNFEVARESGPPHMKNFVTKVSVGEFVGEGEGKSKKISKKNAAIAVLEEL [L16P]
Output line: -0.663

Input line: Please give the documented abundance fitness of KSEISQVFQIALKRNLPVNFEVARESGPPHMKNFVTKVSVGEFVGEGEGKSKKISKKNAAIAVLEEL [E9Q]
Output line: -0.038

Input line: Please give the documented abundance fitness of KSEISQVFEIALKRNLPVNFEVARESGPPHMKNFVTKVSVGEFVGEGEGKSKKISKKNQAIAVLEEL [A59Q]
Output line: -0.785

Input line: Please give the documented abundance fitness of KSEISQVFEIALKRNLPVNFEVARESGPPHMKNFVTKVSVGEFVGEGEGKSKKISKKNAAIEVLEEL [A62E]
Output line: -0.353

Input line: Please give the documented abundance fitness of KSEISQVFEIALKRNLPVNFEVARESGPPHMKNFVTKVSVGEFVGEGEGKRKKISKKNAAIAVLEEL [S51R]
Output line: -0.244

Input line: Please give the documented abundance fitness of KSEISQVFEIALKRNLPVNFEVARCSGPPHMKNFVTKVSVGEFVGEGEGKSKKISKKNAAIAVLEEL [E25C]
Output line: -0.104

Input line: Please give the documented abundance fitness of KSEISQVFEIALKRNLPVKFEVARESGPPHMKNFVTKVSVGEFVGEGEGKSKKISKKNAAIAVLEEL [N19K]
Output line: 0.082

Input line: Please give the documented abundance fitness of KSEISFVFEIALKRNLPVNFEVARESGPPHMKNFVTKVSVGEFVGEGEGKSKKISKKNAAIAVLEEL [Q6F]
Output line: -0.653

Input line: Please give the documented abundance fitness of KSEISQVFEIALKRNLPVNFEVARESGPPHMKNFVTKVSVYEFVGEGEGKSKKISKKNAAIAVLEEL [G41Y]
Output line: -1.13

Input line: Please give the documented abundance fitness of KSEISQVFEIALKRNLPVNFEVARESGPPHMKNFVTKVSVGEFVGEGEGKSKKISKKNAAYAVLEEL [I61Y]
Output line: -0.478

Input line: Please give the documented abundance fitness of KYEISQVFEIALKRNLPVNFEVARESGPPHMKNFVTKVSVGEFVGEGEGKSKKISKKNAAIAVLEEL [S2Y]
Output line: -0.653

Input line: Please give the documented abundance fitness of KSEISQVFEIALKRNLPVNFEVARESGPPHMKNFVTKVSVGEFWGEGEGKSKKISKKNAAIAVLEEL [V44W]
Output line: -0.112

Input line: Please give the documented abundance fitness of KSEISQVFEIALKRNLPVNFEVARESGPPHMKNFVTKVSVGEFVGEGEGKSKKISKKNAAIAVCEEL [L64C]
Output line: -0.209

Input line: Please give the documented abundance fitness of KSEISQVFEIALKRNLPVNFEIARESGPPHMKNFVTKVSVGEFVGEGEGKSKKISKKNAAIAVLEEL [V22I]
Output line: -0.005
